Assay: clinical
Details: human, in vivo, 9 mg/m2, Tmax
REPORTED METRIC: Tmax (min)

{"MOLECULE": "CC[C@@]1(OC(=O)[C@@H](C)O)C(=O)OCc2c1cc1n(c2=O)Cc2cc3c(CN(C)C)c(O)ccc3nc2-1 [TLC-U1, S,R-topotecan lactate]", "OBSERVED RESULT": 33.8}
{"MOLECULE": "CC[C@@]1(OC(=O)[C@H](C)O)C(=O)OCc2c1cc1n(c2=O)Cc2cc3c(CN(C)C)c(O)ccc3nc2-1 [TLC-U2, S,S-topotecan lactate]", "OBSERVED RESULT": 30.2}
{"MOLECULE": "CC[C@@]1(O)C(=O)OCc2c1cc1n(c2=O)Cc2cc3c(CN(C)C)c(O)ccc3nc2-1 [Topotecan, reference compound]", "OBSERVED RESULT": 69}

Where these numbers come from: patent US20140135357A1
